Assignment: determine reported PDI for the given compounds.
- test.name: Particle size and PDI by dynamic light scattering (Malvern Zetasizer)
- Assay type: physicochemical
- test.parameters: lipid/no neutral lipid/CHOL/GM-020 NOF 60/0/36/4, N/P 3
# print the numeric value only

Item CCCCC/C=C\C/C=C\CCCCCCCCCCOCC(CN1CCCCC1)OCCO[C@H]1CC[C@@]2(C)C(=CC[C@H]3[C@@H]4CC[C@H]([C@H](C)CCCC(C)C)[C@@]4(C)CC[C@@H]32)C1 (some centres unmarked) : provide PDI
0.199

Item CCCCC/C=C\C/C=C\CCCCCCCCOCC(CN1CCCC1C)OCCOCCOCCO[C@H]1CC[C@@]2(C)C(=CC[C@H]3[C@@H]4CC[C@H]([C@H](C)CCCC(C)C)[C@@]4(C)CC[C@@H]32)C1 (some centres unmarked) : provide PDI
0.303

Item CCCCCCCC/C=C\CCCCCCCCOCC(CN1CCCC1C)OCCO[C@H]1CC[C@@]2(C)C(=CC[C@H]3[C@@H]4CC[C@H]([C@H](C)CCCC(C)C)[C@@]4(C)CC[C@@H]32)C1 (some centres unmarked) : provide PDI
0.071

Item CCCCC/C=C\C/C=C\CCCCCCCCOCC(CN1CCC(OC)C1)OCCCOCCCO[C@H]1CC[C@@]2(C)C(=CC[C@H]3[C@@H]4CC[C@H]([C@H](C)CCCC(C)C)[C@@]4(C)CC[C@@H]32)C1 (some centres unmarked) : provide PDI
0.080

Item CCCCC/C=C\C/C=C\CCCCCCCCOCC(CN1CCCCC1)OCCOCCOC(=O)CCC(=O)O[C@H]1CC[C@@]2(C)C(=CCC3C2CC[C@@]2(C)C3CC[C@@H]2[C@H](C)CCCC(C)C)C1 (some centres unmarked) : provide PDI
0.171

* * *

Assignment: determine reported Final size (nm) for the given molecules.
- test.name: Particle size and PDI by dynamic light scattering (Malvern Zetasizer)
- Assay type: physicochemical
- test.parameters: LNP formulation with PLK1 siRNA; helper, neutral and stealth lipid, molar ratio and N/P as in the table
Give the quantity in nm, number only.

Item CCCCCCCC/C=C\CCCCCCCCOCC(CN1CCOCC1)OCCOCC(=O)OC1CC[C@@]2(C)C(=CCC3C2CC[C@@]2(C)C3CC[C@@H]2[C@H](C)CCCC(C)C)C1 (stereo partly drawn) : provide Final size (nm)
86.57

Item CCCCC/C=C\C/C=C\CCCCCCCCOCC(CN1CCC(O)C1)OCCOCCO[C@H]1CC[C@@]2(C)C(=CC[C@H]3[C@@H]4CC[C@H]([C@H](C)CCCC(C)C)[C@@]4(C)CC[C@@H]32)C1 (stereo partly drawn) : provide Final size (nm)
103.2

Item CCCCC/C=C\C/C=C\CCCCCCCCOCC(CN1CCOCC1)OCCOCCNC(=O)O[C@H]1CC[C@@]2(C)C(=CC[C@H]3[C@@H]4CC[C@H]([C@H](C)CCCC(C)C)[C@@]4(C)CC[C@@H]32)C1 (stereo partly drawn) : provide Final size (nm)
99.14

* * *

- test.name: Particle size and PDI by dynamic light scattering (Malvern Zetasizer)
- Format: physicochemical
- test.parameters: lipid/no neutral lipid/CHOL/GM-020 NOF 60/0/36/4, N/P 3
property: Final size (nm)
Give the quantity in nm, number only.

Item CCCCC/C=C\C/C=C\CCCCCCCCCCOCC(CN1CCCCC1)OCCCOCCCO[C@H]1CC[C@@]2(C)C(=CC[C@H]3[C@@H]4CC[C@H]([C@H](C)CCCC(C)C)[C@@]4(C)CC[C@@H]32)C1 (some centres unmarked) [E0096] : provide Final size (nm)
128.8

Item CCCCC/C=C\C/C=C\CCCCCCCCOCC(CN1CCCC1C)OCCOCCOCCOCCO[C@H]1CC[C@@]2(C)C(=CC[C@H]3[C@@H]4CC[C@H]([C@H](C)CCCC(C)C)[C@@]4(C)CC[C@@H]32)C1 (some centres unmarked) [E0084] : provide Final size (nm)
112.1
